Numbers sourced from patent US8263656B2.

target: human CRTH2 (Homo sapiens); experiment: Human CRTH2 Receptor Binding Assay (whole cell, [3H]ramatroban competition); settings: CHO-K1 cells expressing human CRTH2 and G-alpha16; 20 nM [3H]ramatroban; 1 hour, room temperature
Assay metric: IC50 (µM)
Write the answer as a number in µM, unit excluded.

Determine from records and report IC50 for O=C(O)COc1c(F)c(F)cc2c1CCCC2NS(=O)(=O)c1cc(Br)cc(C(F)(F)F)c1 (stereo not shown)
0.0182

Determine from records and report IC50 for Cc1c(Cl)cc2c(c1OCC(=O)O)CCCC2NS(=O)(=O)c1cc(C(F)(F)F)cc(C(F)(F)F)c1 (stereo not shown)
0.0284

Determine from records and report IC50 for O=C(O)COc1cc(Cl)cc2c1CCCC2NS(=O)(=O)c1cc(Br)cc(C(F)(F)F)c1 (stereo not shown)
0.0036

Determine from records and report IC50 for O=C(O)COc1c(F)c(Cl)cc2c1CCC[C@H]2NS(=O)(=O)c1cc(Br)cc(C(F)(F)F)c1
0.0026

----------
target: human CRTH2 (Homo sapiens); experiment: Human CRTH2 Receptor Binding Assay (whole cell, [3H]ramatroban competition); settings: CHO-K1 cells expressing human CRTH2 and G-alpha16; 20 nM [3H]ramatroban; 1 hour, room temperature
Assay metric: pIC50
On this scale, pIC50 is minus log10 of a concentration expressed in M (mol/L).

Solved cases (3 shown):
CCc1ccc2c(c1OCC(=O)O)CCCC2N(C)S(=O)(=O)c1cc(C(F)(F)F)cc(C(F)(F)F)c1 (centres unmarked)
6.75
O=C(O)COc1c(F)c(Cl)cc2c1CCCC2NS(=O)(=O)c1cc(Br)cc(C(F)(F)F)c1 (centres unmarked)
8.10
CN(C1CCCc2c(OCC(=O)O)cc(Cl)cc21)S(=O)(=O)c1ccc(Cl)cc1Cl (centres unmarked)
7.03

Determine from records and report pIC50 for CCc1ccc2c(c1OCC(=O)O)CCCC2NS(=O)(=O)c1cc(C(F)(F)F)cc(C(F)(F)F)c1 (centres unmarked)
7.19

Determine from records and report pIC50 for O=C(O)COc1cc(F)cc2c1CCCC2NS(=O)(=O)c1cc(Cl)ccc1Cl (centres unmarked)
7.09

Determine from records and report pIC50 for O=C(O)COc1c(F)c(Cl)cc2c1CCC[C@H]2NS(=O)(=O)c1ccc(Cl)cc1Cl
8.20

Determine from records and report pIC50 for CC(C)c1cccc(-c2ccc(S(=O)(=O)NC3CCCc4c3cc(Cl)c(F)c4OCC(=O)O)nc2)c1 (centres unmarked)
7.79

Determine from records and report pIC50 for O=C(O)COc1cc(Br)cc2c1CCC[C@H]2NS(=O)(=O)c1cc(C(F)(F)F)cc(C(F)(F)F)c1
8.60

----------
The compounds listed here are annotated with their pIC50.
Molecular target: human CRTH2 (Homo sapiens, UniProt Q9Y5Y4)
Sequence (Q9Y5Y4 whole entry): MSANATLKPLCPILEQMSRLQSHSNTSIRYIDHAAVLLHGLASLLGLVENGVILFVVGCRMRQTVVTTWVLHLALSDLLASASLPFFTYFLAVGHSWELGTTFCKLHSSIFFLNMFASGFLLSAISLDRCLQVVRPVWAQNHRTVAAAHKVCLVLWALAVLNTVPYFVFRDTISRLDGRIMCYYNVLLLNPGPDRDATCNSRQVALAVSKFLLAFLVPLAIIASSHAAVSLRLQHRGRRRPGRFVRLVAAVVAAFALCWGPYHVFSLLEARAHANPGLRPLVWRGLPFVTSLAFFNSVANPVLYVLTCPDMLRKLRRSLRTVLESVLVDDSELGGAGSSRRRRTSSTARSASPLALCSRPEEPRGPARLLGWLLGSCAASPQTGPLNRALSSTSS
Assay: Human CRTH2 Receptor Binding Assay (whole cell, [3H]ramatroban competition)
Conditions: CHO-K1 cells expressing human CRTH2 and G-alpha16; 20 nM [3H]ramatroban; 1 hour, room temperature
Description: A whole cell receptor binding assay using [^3H]ramatroban as the competing radioactive ligand was employed to evaluate the compound binding activity to human CRTH2. […] The binding reactions (0.2 mL) were performed in 96-well plates at room temperature in PBS containing 1.5×10^5 cells, 10 mM MgCl2, 0.06% BSA, 20 nM [^3H]ramatroban, and test compound at various concentrations. […] Specific binding data were obtained by subtracting the radioactivity of non-specific binding from each binding data. […]
On this scale, pIC50 is minus log10 of a concentration expressed in M (mol/L).

Solved cases (5 shown):
Cc1ccc2c(c1OCC(=O)O)CCCC2N(C)S(=O)(=O)c1cc(C(F)(F)F)cc(C(F)(F)F)c1 (stereo not shown)
6.51
O=C(O)COc1cc(Cl)cc2c1CCC[C@H]2NS(=O)(=O)c1cc(Cl)ccc1Cl
7.96
O=C(O)COc1cc(Cl)cc2c1CCC[C@H]2NS(=O)(=O)c1cc(F)cc(C(F)(F)F)c1
8.47
CN([C@@H]1CCCc2c(OCC(=O)O)cc(Cl)cc21)S(=O)(=O)c1cc(C(F)(F)F)cc(C(F)(F)F)c1
8.23
O=C(O)COc1cc(Br)cc2c1CCC[C@H]2NS(=O)(=O)c1cc(Br)cc(C(F)(F)F)c1
8.55

Check human CRTH2 (Homo sapiens, UniProt Q9Y5Y4) data and give pIC50 for Cc1ccc2c(c1OCC(=O)O)CCCC2NS(=O)(=O)c1cc(C(F)(F)F)cc(C(F)(F)F)c1 (stereo not shown) .
6.83

Check human CRTH2 (Homo sapiens, UniProt Q9Y5Y4) data and give pIC50 for CN(C1CCCc2c(OCC(=O)O)cc(F)cc21)S(=O)(=O)c1cc(Cl)ccc1Cl (stereo not shown) .
5.58
